assay: Acute toxicity test (LD50); assay type: in vivo; conditions: in vivo, po; gastric lavage, male Wistar rat; probit method; 95% confidence interval in parenthesis on the next line
attribute.measured: LD50

Fill blank: measured LD50 of the compound Nc1ccc(C(=O)N2CCc3cc(S(=O)(=O)N4CC(c5ccccc5)NC4=O)ccc32)cc1 (stereo not shown) is ____.
644 mg/kg

###

Test system: SK-OV-3 (ATCC HTB 77): human ovarian adenocarcinoma
Assay: In vitro antitumor activity, MTT assay, SK-OV-3
Format: cell-based
Details: Homo sapiens, SK-OV-3, Table 1, 48 hrs
Protocol: In vitro antitumor activity against human tumor cell lines In vitro antitumor activity of the compounds according to the present invention was determined by MTT assay method against the following human tumor cell lines: SK-OV-3 (ATCC HTB 77): human ovarian adenocarcinoma In this test, the known antineoplastic compounds, Doxorubicin and Sulofenur, were used as the comparative agents. […]
attribute.measured: IC50 (µg/mL)
One number for each entry, in µg/mL.

Here is how some molecules turned out for IC50.
Fill blank: measured IC50 of the molecule O=C(c1ccc([N+](=O)[O-])cc1)N1CCc2cc(S(=O)(=O)n3cc(-c4ccccc4)[nH]c3=O)ccc21 [Example 9] is ____.
0.106

Fill blank: measured IC50 of the molecule CCOC(=O)N1CCc2cc(S(=O)(=O)n3cc(-c4ccccc4)[nH]c3=O)ccc21 [Example 1] is ____.
10.1

Fill blank: measured IC50 of the molecule O=C(c1ccccc1)N1CCc2cc(S(=O)(=O)n3cc(-c4ccccc4)[nH]c3=O)ccc21 [Example 13] is ____.
1.22

Fill blank: measured IC50 of the molecule CC(C)NC(=O)N1c2ccc(S(=O)(=O)n3cc(-c4ccccc4)[nH]c3=O)cc2CC1C (stereo not drawn) [Example 7] is ____.
1.07

Fill blank: measured IC50 of the molecule CC1Cc2cc(S(=O)(=O)n3cc(-c4ccccc4)[nH]c3=O)ccc2N1C(=O)c1ccc([N+](=O)[O-])cc1 (stereo not drawn) [Example 11] is ____.
0.453

Fill blank: measured IC50 of the molecule CC1Cc2cc(S(=O)(=O)n3cc(-c4ccccc4)[nH]c3=O)ccc2N1C(=O)c1ccc(N)cc1 (stereo not drawn) [Example 12] is ____.
0.509

Fill blank: measured IC50 of the molecule CCCNC(=O)N1c2ccc(S(=O)(=O)n3cc(-c4ccccc4)[nH]c3=O)cc2CC1C (stereo not drawn) [Example 5] is ____.
0.146

Fill blank: measured IC50 of the molecule CCNC(=O)N1CCc2cc(S(=O)(=O)n3cc(-c4ccccc4)[nH]c3=O)ccc21 [Example 2] is ____.
0.537

// for each molecule in input: emit IC50
1. CC(C)(C)NC(=O)N1CCc2cc(S(=O)(=O)n3cc(-c4ccccc4)[nH]c3=O)ccc21 [Example 8]
2. Nc1ccc(C(=O)N2CCc3cc(S(=O)(=O)n4cc(-c5ccccc5)[nH]c4=O)ccc32)cc1 [Example 10]
3. O=C(c1cccnc1)N1CCc2cc(S(=O)(=O)n3cc(-c4ccccc4)[nH]c3=O)ccc21 [Example 15]
4. CCNC(=O)N1c2ccc(S(=O)(=O)n3cc(-c4ccccc4)[nH]c3=O)cc2CC1C (stereo not drawn) [Example 3]
5. CCOc1ccc(C(=O)N2CCc3cc(S(=O)(=O)n4cc(-c5ccccc5)[nH]c4=O)ccc32)cc1 [Example 14]

2.67
0.529
0.446
0.509
0.926

The reported numbers originate from patent US5932742A.
